# TEST_METHOD_NOTES: Solubility test (UV-vis calibration curves, maximum solubility)
# SETTINGS: 0.5 M TBABF4 in MeCN, organic solvent or mixture, thermodynamic from solid, maximum solubility in electrolyte solution, 0.5 M TBABF4/MeCN
RECORDED_ENDPOINT: solubility (mM)
Could you give me the number in mM? Just the number is fine.

Prompt line: What value of solubility has been reported for the following compound? C[n+]1ccc(-c2nc3ccccc3s2)cc1 [BTP^+·BF4^−]
Response line: 87

----------
Assign Peak to peak potential difference (ΔEp) to each entry below.
# TEST_METHOD_NOTES: Cyclic voltammetry (CV) in three-electrode cells
# Assay type: physicochemical
# SETTINGS: 1st event (or only value); initial; 10 mM in 0.1 M TBABF4/MeCN
Report the value in mV with no unit label.

Prompt line: Recorded Peak to peak potential difference (ΔEp) for "COCC[n+]1ccc(-c2nc3ccccc3s2)cc1" , please?
Response line: 104

Prompt line: Would you kindly share the measured Peak to peak potential difference (ΔEp) for "CCCCCCCCCC[n+]1ccc(-c2nc3ccccc3s2)cc1" ?
Response line: 99

Prompt line: What value of Peak to peak potential difference (ΔEp) has been reported for the following compound? "Cc1cc(-c2nc3ccccc3s2)cc(C)[n+]1C"
Response line: 89

Prompt line: Would you kindly share the measured Peak to peak potential difference (ΔEp) for "CCCCCC[n+]1ccc(-c2nc3ccccc3s2)cc1" ?
Response line: 125
